Hello, the source for this data is the supplement of paper PMC6555819, in case you need it.

test system: THRa homodimer (NR concentration 90 nM); experiment: PBM binding z-score (relative to random genomic background probes); higher = stronger binding; sequences stand for … in GC…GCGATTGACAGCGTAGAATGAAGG
Measure Name: PBM binding z-score
Give bare numbers.

Sample records with PBM binding z-score:
{"columns": ["Construct Sequence", "Assayed System", "Quantitative Readout"],
 "data": [
  ["TCGCCTAGGTCATGCGGGCCAGTATAGTGTCGGC", "THRa homodimer (NR concentration 90 nM)", 1.43],
  ["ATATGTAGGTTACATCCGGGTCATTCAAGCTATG", "THRa homodimer (NR concentration 90 nM)", 2.61],
  ["CCGACTGGGCCAAAGGTTACCATACTCAGTACGA", "THRa homodimer (NR concentration 90 nM)", 0.0942],
  ["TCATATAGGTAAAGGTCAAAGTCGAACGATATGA", "THRa homodimer (NR concentration 90 nM)", 0.708],
  ["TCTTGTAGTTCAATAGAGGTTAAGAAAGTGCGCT", "THRa homodimer (NR concentration 90 nM)", 0.104],
  ["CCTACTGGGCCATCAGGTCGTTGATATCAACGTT", "THRa homodimer (NR concentration 90 nM)", 1.06],
  ["CCAGACAGGTGAGAAGGTAACTCAACCTCGATTA", "THRa homodimer (NR concentration 90 nM)", 0.31],
  ["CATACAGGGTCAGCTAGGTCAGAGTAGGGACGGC", "THRa homodimer (NR concentration 90 nM)", 2.33],
  ["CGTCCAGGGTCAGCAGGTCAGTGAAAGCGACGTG", "THRa homodimer (NR concentration 90 nM)", 1.32],
  ["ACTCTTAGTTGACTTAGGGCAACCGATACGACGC", "THRa homodimer (NR concentration 90 nM)", 0.885]
]}

Field: next sequence
For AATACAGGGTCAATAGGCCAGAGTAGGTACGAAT , what is its reported PBM binding z-score?
0.474

----------
system: RARa:RXR (NR concentration 270 nM, RXRa partner concentration 90 nM); assay: PBM binding z-score (relative to random genomic background probes); higher = stronger binding; sequences stand for … in GC…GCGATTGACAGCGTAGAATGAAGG
Measure Name: PBM binding z-score
Answers are plain numbers.

{"columns": ["Construct Sequence", "Assayed System", "PBM binding z-score"],
 "data": [
  ["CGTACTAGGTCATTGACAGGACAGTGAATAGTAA", "RARa:RXR (NR concentration 270 nM, RXRa partner concentration 90 nM)", 2.54]
]}

For every listed record, write down its PBM binding z-score.
1. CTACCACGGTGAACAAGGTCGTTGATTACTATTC
2. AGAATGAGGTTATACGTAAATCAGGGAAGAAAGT

1. 1.15
2. 1.77

Batch: PBM binding z-score for all items listed.
1. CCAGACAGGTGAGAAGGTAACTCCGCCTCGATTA
2. TCTTGTAGATCAATAGAGGTTAAGGAAGTGCGCT
3. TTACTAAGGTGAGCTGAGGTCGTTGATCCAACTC

1. 0.0222
2. 1.96
3. 2.16

I have 4 sequences here; please give me PBM binding z-score for each one.
1. ACTATTAGTTGAGACGAGCGCAACCGATAGGTTG
2. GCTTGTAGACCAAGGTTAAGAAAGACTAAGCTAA
3. AATCGGAGGACAAAGGTCAGAGCTACGCCAGTGA
4. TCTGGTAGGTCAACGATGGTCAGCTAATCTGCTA

[-0.474, 0.313, 4.48, 2.78]
